Let's look at some compounds and their measured IC50.
# system.name: EML4-ALK kinase (Homo sapiens (Human), UniProt Q9HC35+Q9UM73)
# Sequence (Q9UM73 other isoform, or with tags, fused parts or gaps): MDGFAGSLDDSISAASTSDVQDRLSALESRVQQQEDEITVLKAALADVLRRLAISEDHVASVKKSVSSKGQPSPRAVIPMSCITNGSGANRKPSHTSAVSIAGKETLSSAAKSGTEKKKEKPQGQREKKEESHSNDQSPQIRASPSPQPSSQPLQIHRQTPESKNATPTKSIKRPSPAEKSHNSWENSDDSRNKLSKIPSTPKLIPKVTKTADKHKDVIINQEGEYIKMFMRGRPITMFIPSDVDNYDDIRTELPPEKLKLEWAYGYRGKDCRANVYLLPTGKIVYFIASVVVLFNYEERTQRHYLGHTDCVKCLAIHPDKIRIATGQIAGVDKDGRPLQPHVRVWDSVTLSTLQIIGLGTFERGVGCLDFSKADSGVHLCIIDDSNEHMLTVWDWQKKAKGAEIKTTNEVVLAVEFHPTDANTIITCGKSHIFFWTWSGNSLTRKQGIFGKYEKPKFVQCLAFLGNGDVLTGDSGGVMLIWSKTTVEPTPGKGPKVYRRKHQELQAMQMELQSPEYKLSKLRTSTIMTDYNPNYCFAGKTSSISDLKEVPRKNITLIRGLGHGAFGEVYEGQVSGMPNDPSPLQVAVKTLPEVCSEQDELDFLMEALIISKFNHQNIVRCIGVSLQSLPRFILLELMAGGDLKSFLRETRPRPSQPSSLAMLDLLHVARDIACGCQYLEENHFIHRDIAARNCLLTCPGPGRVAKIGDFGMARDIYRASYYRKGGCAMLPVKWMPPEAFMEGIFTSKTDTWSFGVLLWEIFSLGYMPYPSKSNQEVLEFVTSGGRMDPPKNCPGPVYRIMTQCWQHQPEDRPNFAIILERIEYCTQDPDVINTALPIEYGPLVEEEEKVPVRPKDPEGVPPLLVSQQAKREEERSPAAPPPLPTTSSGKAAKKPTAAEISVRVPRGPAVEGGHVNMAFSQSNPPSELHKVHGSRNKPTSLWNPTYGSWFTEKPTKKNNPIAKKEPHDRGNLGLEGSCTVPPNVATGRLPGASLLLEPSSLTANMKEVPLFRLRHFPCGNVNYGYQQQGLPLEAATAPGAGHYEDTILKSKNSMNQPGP
# test.protocol: Enzymatic activity test 2 (ADP-Glo) EML4-ALK kinase
# Assay type: biochemical
// return numeric value only (unit: nM, not printed)

query.smiles: COc1cc(N2CCC(N3CCN(C)CC3)CC2)c(Cl)cc1Nc1ncc(Br)c(Nc2ccc(C)cc2P(C)(C)=O)n1
system.name: EML4-ALK kinase (Homo sapiens (Human), UniProt Q9HC35+Q9UM73)
measured.result: 12.9

Field: next compound
What measured IC50 goes with `COc1cc(N2CCC(N(C)C)CC2)c(C)cc1Nc1ncc(Br)c(Nc2ccc(C)cc2P(C)(C)=O)n1` ?
14.6

====

# system.name: EGFR-T790M/L858R (Homo sapiens (Human), UniProt P00533, L858R/T790M)
# Sequence (P00533 25-1210 T790M/L858R): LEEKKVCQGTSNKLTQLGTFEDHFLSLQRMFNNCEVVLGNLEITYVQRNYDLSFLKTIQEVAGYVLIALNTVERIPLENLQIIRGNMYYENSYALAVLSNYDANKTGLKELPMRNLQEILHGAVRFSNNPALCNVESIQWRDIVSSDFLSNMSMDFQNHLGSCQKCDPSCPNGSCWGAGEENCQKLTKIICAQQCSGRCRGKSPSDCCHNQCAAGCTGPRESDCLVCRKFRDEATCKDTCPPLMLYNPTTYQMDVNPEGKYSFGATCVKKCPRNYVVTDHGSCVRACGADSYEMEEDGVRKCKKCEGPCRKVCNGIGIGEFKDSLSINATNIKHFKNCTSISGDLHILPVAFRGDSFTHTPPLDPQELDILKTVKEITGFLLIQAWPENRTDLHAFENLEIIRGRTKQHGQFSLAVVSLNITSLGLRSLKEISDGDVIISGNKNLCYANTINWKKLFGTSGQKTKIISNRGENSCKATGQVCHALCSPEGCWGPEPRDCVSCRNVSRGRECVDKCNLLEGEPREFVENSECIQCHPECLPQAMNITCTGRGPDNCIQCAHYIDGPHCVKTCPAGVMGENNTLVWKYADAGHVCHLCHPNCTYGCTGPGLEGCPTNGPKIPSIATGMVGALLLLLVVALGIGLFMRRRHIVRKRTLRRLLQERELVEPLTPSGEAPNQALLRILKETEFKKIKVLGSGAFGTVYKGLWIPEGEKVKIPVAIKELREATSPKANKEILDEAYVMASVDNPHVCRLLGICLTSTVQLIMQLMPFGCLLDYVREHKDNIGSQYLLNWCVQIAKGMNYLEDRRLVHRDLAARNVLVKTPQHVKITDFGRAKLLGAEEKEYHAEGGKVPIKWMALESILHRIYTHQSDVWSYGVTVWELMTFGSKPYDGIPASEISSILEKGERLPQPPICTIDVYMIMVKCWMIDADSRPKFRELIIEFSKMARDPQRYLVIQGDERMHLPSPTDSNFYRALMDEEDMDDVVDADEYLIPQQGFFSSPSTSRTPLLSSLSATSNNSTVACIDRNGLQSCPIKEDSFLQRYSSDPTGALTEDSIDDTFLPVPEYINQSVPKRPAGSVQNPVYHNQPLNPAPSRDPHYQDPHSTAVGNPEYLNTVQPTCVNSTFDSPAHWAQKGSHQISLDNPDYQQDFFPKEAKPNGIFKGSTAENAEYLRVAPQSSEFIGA
# test.protocol: Enzymatic activity test (ADP-Glo) EGFR-T790M/L858R
# measurement.setup: kinase
property.label: pIC50
Please report pIC50 as the negative decimal logarithm of the molar concentration, giving only the number.

molecule: COc1cc(N2CCC(N3CCN(C)CC3)CC2)c(Cl)cc1Nc1ncc(Br)c(Nc2ccc(C)cc2P(C)(C)=O)n1 [Compound 14]
system.name: EGFR-T790M/L858R (Homo sapiens (Human), UniProt P00533, L858R/T790M)
property.label: pIC50
measured.result: 7.78

Field: next molecule
What measured pIC50 goes with COc1cc(N2CCC(N(C)C)CC2)c(C)cc1Nc1ncc(Br)c(Nc2ccc(C)cc2P(C)(C)=O)n1 [Compound 6] ?
7.54

====

# test.protocol: Pharmacokinetic test in SD rats
# Assay type: in vivo
# measurement.setup: male, rat, plasma, PO, 20 mg/kg
property.label: AUC(0-t) (ng·h/mL)
// return numeric value only (unit: ng·h/mL, not printed)

What measured AUC(0-t) goes with `COc1cc(N2CCC(N3CCN(C)CC3)CC2)c(C)cc1Nc1ncc(Br)c(Nc2ccc(C)cc2P(C)(C)=O)n1` ?
96300

====

# test.protocol: Single administration toxicity test, orally intragastric administration to SD rats
# Type: in vivo
# measurement.setup: both sexes, rat, in vivo, po; SD rats, single orally intragastric administration; read-out: Maximum Tolerated Dose (MTD)
# Experimental: 8-week-old SD rats, 10 per group, male and female half, were purchased from Beijing SiPeiFu. The rats were tested after 3 days of acclimatization in this laboratory. The oral administration was performed by intragastric administration with an administration volume of 10 mL/kg. The rats were fasted and not forbidden to drink water for 17 hours before administration. The rats in the control group were given an equal volume of solvent via oral gavage. […]
property.label: MTD at 14 days (mg/kg)
// return numeric value only (unit: mg/kg, not printed)

What measured MTD at 14 days goes with `COc1cc(N2CCC(N3CCN(C)CC3)CC2)c(C)cc1Nc1ncc(Br)c(Nc2ccc(C)cc2P(C)(C)=O)n1` ?
125

====

# test.protocol: Pharmacokinetic test in SD rats
# Type: in vivo
# measurement.setup: male, Sprague-Dawley, rat, plasma, PO, 20 mg/kg
property.label: AUC(0-t) (ng·h/mL)
// return numeric value only (unit: ng·h/mL, not printed)

What measured AUC(0-t) goes with CCc1cc(Nc2ncc(Br)c(Nc3ccc(C4CC4)cc3P(C)(C)=O)n2)c(OC)cc1N1CCC(N2CCN(C)CC2)CC1 [Control compound 4, reference compound] ?
58500

====

# system.name: EGFR-WT (Homo sapiens (Human), UniProt P00533)
# Sequence (P00533 25-1210): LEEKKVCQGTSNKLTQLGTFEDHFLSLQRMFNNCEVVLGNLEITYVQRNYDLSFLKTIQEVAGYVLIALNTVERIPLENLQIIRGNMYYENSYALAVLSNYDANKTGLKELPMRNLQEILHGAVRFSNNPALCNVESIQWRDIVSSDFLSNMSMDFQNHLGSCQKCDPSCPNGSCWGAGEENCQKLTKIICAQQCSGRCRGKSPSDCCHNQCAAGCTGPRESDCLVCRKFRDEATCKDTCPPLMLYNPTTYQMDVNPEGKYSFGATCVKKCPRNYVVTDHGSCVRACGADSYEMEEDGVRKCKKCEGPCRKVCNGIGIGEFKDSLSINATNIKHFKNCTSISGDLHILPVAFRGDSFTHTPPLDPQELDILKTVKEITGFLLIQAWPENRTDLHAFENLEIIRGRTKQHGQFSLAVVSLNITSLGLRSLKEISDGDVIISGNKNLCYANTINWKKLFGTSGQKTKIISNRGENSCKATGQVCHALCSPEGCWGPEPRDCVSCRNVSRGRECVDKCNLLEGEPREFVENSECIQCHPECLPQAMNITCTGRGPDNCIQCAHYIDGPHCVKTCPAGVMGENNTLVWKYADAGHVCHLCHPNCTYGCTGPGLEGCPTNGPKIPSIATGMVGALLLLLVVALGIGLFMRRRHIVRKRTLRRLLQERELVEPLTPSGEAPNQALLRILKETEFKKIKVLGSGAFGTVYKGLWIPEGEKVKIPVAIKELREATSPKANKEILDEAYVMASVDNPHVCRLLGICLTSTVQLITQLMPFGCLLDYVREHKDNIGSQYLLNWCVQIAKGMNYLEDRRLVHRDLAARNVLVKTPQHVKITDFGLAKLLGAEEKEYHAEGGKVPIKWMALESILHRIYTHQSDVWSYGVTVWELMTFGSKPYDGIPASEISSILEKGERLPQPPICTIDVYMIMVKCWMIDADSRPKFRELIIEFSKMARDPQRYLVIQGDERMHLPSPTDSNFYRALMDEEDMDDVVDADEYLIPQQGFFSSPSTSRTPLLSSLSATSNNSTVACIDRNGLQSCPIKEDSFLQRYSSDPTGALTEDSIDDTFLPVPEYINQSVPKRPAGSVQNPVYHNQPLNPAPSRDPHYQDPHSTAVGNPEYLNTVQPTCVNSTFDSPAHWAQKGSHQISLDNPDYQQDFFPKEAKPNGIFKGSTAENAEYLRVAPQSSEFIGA
property.label: pIC50
Please report pIC50 as the negative decimal logarithm of the molar concentration, giving only the number.

Entry `COc1cc(N2CCC(N3CCN(C)CC3)CC2)c(Cl)cc1Nc1ncc(Br)c(Nc2ccc(C)cc2P(C)(C)=O)n1` , system EGFR-WT (Homo sapiens (Human), UniProt P00533): what pIC50 was measured?
7.18
